assay: Acid-catalyzed hydrolysis of enol ethers in THF/1 M HCl; assay type: physicochemical; details: THF/1M HCl (80:20 v/v), room temperature, 1 d
Measurement Label: Hydrolysis of enol ethers, percent remaining, 1 d (%)
// units = %; emit number, no label

CC/C=C\CCOC=Cc1ccc(OC)cc1 [reference compound]	89.1
CCCCCCCCCCCC=COCCc1ccccc1	0
CCCCCC(CC)OC=Cc1ccccc1 (stereo not shown) [(2-(octan-3-yloxy)vinyl)benzene, reference compound]	84.9
C(=Cc1ccccc1)OCCc1ccccc1 [(2-phenethoxyvinyl)benzene, reference compound]	95
C=CCCCCCCCC=COCCc1ccccc1	0
CCCCCCCCCC(C)C=COCCc1ccccc1 (stereo not shown)	4.6

From here, focus on the item given below.
# input In one line, give reported Hydrolysis of enol ethers, percent remaining, 1 d of the entry `CCCCCCCCCCC=COCCc1ccccc1` .
# output 0

---

Below, each of the molecules is paired with its reported Hydrolysis of enol ethers, percent remaining, 7 d value.
experiment: Acid-catalyzed hydrolysis of enol ethers in THF/1 M HCl; type: physicochemical; details: THF/1M HCl (80:20 v/v), room temperature, 7 d
Express the result in % but write the number alone.

CC/C=C\CCOC=Cc1ccccc1 [(2-(((Z)-hex-3-en-1-yl)oxy)vinyl)benzene, reference compound]	57.3
C(=Cc1ccccc1)OCCc1ccccc1 [(2-phenethoxyvinyl)benzene, reference compound]	66.4
CCCCCCCCCC(C)C=COCCc1ccccc1 (centres unmarked)	0

# input for lookup
# input Tell us which Hydrolysis of enol ethers, percent remaining, 7 d value is on record for `C=CCCCCCCCC=COCCc1ccccc1`
# output 0

---

assay: Acid-catalyzed hydrolysis of enol ethers in THF/1 M HCl; format: physicochemical; conditions: THF/1M HCl (80:20 v/v), room temperature, 3 d
Measurement Label: Hydrolysis of enol ethers, percent remaining, 3 d
Phrase the answer as number then unit, nothing more needed.

Guide cases for Hydrolysis of enol ethers, percent remaining, 3 d, answers given:
CCCCCCCCCC(C)C=COCCc1ccccc1 (centres unmarked) [Compound 25]	0%
C(=Cc1ccccc1)OCCc1ccccc1 [(2-phenethoxyvinyl)benzene, reference compound]	83.7%
CCCCCC(CC)OC=Cc1ccccc1 (centres unmarked) [(2-(octan-3-yloxy)vinyl)benzene, reference compound]	61.7%
C=CCCCCCCCC=COCCc1ccccc1 [Compound 3]	0%
CCCCCCCCCCCC=COCCc1ccccc1 [Compound 2, (2-(tridec-1-en-1-yloxy)ethyl)benzene]	0%
CC/C=C\CCOC=Cc1ccc(OC)cc1 [reference compound]	72.4%

# input Respond only with Hydrolysis of enol ethers, percent remaining, 3 d recorded for CC/C=C\CCOC=Cc1ccccc1 [(2-(((Z)-hex-3-en-1-yl)oxy)vinyl)benzene, reference compound]
# output 79.5%

# input Please report the measured Hydrolysis of enol ethers, percent remaining, 3 d for CCCCCCCCCCC=COCCc1ccccc1 [Compound 1, (2-(dodec-1-en-1-yloxy)ethyl)benzene]
# output 0%

---

assay: Acid-catalyzed hydrolysis of enol ethers in THF/1 M HCl; type: physicochemical; details: THF/1M HCl (80:20 v/v), room temperature, 5 h
In plain terms, low Hydrolysis of enol ethers, percent remaining, 5 h, meaning strictly below 20%, gives Met, and everything else gives Not met.

Solved cases (2 shown):
CCCCCCCCCCC=COCCc1ccccc1 [Compound 1, (2-(dodec-1-en-1-yloxy)ethyl)benzene]	Met
CCCCCCCCCC(C)C=COC(CC)CCCCC (stereo not drawn) [Compound 29, 3-methyl-1-(octan-3-yloxy)dodec-1-ene]	Met

# input # TODO verify Hydrolysis of enol ethers, percent remaining, 5 h < 20% strictly for this molecule: CCCCCCCCCCCC=COCCc1ccccc1 [Compound 2, (2-(tridec-1-en-1-yloxy)ethyl)benzene]
# output Met

# input Does the reported Hydrolysis of enol ethers, percent remaining, 5 h of CCCCCCCCCC(C)C=COCCc1ccccc1 (stereo not drawn) [Compound 25] stay below 20%?
# output Not met

# input Please indicate whether the reported Hydrolysis of enol ethers, percent remaining, 5 h of CC/C=C\CCOC=CC(C)CCCCCCCCC (stereo not drawn) [Compound 27] is strictly below 20%.
# output Not met

---

assay: Acid-catalyzed hydrolysis of enol ethers in THF/1 M HCl; assay type: physicochemical; conditions: THF/1M HCl (80:20 v/v), room temperature, 7 d
// Hydrolysis of enol ethers, percent remaining, 7 d lookup, one value per entry
The response must be a number in % with no trailing unit.

Example results:
CCCCCC(CC)OC=Cc1ccccc1 (stereo not shown) [(2-(octan-3-yloxy)vinyl)benzene, reference compound]	33.6
CCCCCCCCCCC=COCCc1ccccc1	0
CC/C=C\CCOC=Cc1ccc(OC)cc1 [reference compound]	52.5

Pending compound:
# input Please list Hydrolysis of enol ethers, percent remaining, 7 d recorded for the compound `CCCCCCCCCCCC=COCCc1ccccc1`
# output 0
